experiment: Half life in overnight fasted mouse at 10 mg/kg, po administered as single dose by LC-MS/MS analysis; format: ADME, organism-based; conditions: in vivo
measurement.label: half-life (min)

[[record]]
compound = "C[C@@H](Oc1ccc2[nH]nc(/C=C/c3cnn(CCNC(=O)CCCCCNc4ccc5c(c4)C(=O)N(C4CCC(=O)NC4=O)C5=O)c3)c2c1)c1c(Cl)cncc1Cl (stereo partly specified)"
measurement_label = "half-life"
experimental_result = 45


---

assay: in vitro; details: human, HEK293T cells
measurement.label: IC50 at 72 h (nM)

[[record]]
compound = "C[C@@H](Oc1ccc2[nH]nc(/C=C/c3cnn(CCNC(=O)CCCCCNc4ccc5c(c4)C(=O)N(C4CCC(=O)NC4=O)C5=O)c3)c2c1)c1c(Cl)cncc1Cl (stereo partly specified)"
experimental_result = 2140

